Cited source: paper PMC10716637

test: Cytotoxicity against VERO normal cell lines; settings: African green monkey, VERO normal cells
Rule: CC50 below 50 µM gives Fulfilled. Equal to or above 50 µM gives Not fulfilled.

• CCCn1c(=O)n(CC(=O)Nc2ccc(C(=O)NN=Cc3ccc(Cl)cc3)cc2)c(=O)c2cc(I)ccc21 = Fulfilled
• CCn1c(=O)n(CC(=O)Nc2ccc(C(=O)NN=Cc3ccc(OC)cc3)cc2)c(=O)c2cc(I)ccc21 = Not fulfilled
• CCn1c(=O)n(CC(=O)Nc2ccc(C(=O)NN=Cc3ccccc3)cc2)c(=O)c2cc(I)ccc21 = Fulfilled

Would you kindly look at the next entry?
Query: Does CCCn1c(=O)n(CC(=O)Nc2ccc(C(=O)OCC)cc2)c(=O)c2cc(I)ccc21 have CC50 strictly under 50 µM?
Result: Fulfilled
